systemTested: Equilibrative nucleoside transporter 1 (Homo sapiens, UniProt Q99808)
Sequence (Q99808 whole entry): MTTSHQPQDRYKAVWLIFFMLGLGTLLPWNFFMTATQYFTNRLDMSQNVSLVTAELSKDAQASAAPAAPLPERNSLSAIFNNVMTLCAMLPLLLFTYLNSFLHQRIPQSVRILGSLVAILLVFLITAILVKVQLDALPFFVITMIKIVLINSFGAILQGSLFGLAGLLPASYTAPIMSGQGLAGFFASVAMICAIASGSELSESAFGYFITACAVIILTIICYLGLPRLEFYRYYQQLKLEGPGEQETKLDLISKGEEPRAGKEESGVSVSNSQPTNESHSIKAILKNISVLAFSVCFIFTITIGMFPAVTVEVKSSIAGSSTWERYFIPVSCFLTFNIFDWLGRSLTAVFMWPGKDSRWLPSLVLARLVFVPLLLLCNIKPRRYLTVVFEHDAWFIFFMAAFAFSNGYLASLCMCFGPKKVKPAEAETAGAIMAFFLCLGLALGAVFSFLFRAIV
procedureText: Affinity Biochemical interaction: (radioligand binding assay, inhibition of [3H]S-(4-Nitrobenzyl)-6-thioinosine binding to target) EUB0002560a SLC29A1
Parameters: mode of action Inhibitor, recommended concentration 1 uM
pKi: −log10 of the molar value.
readoutName: pKi

>>> measuredresult("NC(=O)C1CN(CCCCC(c2ccc(F)cc2)c2ccc(F)cc2)CCN1CC(=O)Nc1c(Cl)cc(N)cc1Cl (stereo unspecified)")
9.03
